Source listed as paper doi:10.1101/2023.07.11.548539v1.

system: AcpP::3xFLAG fusion protein; assay: Western blot of intracellular AcpP protein levels; type: cell-based, Salmonella SL1344 AcpP::3xFLAG; design: key: -: Effect strength is represented by additional (+) signs.; Effect strength is represented by additional (+) signs.; ++: Effect strength is represented by additional (+) signs.; +++: Effect strength is represented by additional (+) signs; details: summary grade; KFF-ASO treatment (Figure 9)
Oligonucleotides are written 5' to 3', each unit as a sugar letter and its base; * is a phosphorothioate linkage, no mark a phosphodiester; rarer units and linkages stand in square brackets, end groups in braces. Plain capitals give the bases only. d = 2'-deoxy (DNA)
TEST READOUT: AcpP protein reduction

Worked examples follow.
# SUBSTANCE, RESULT
rows = [
    ("RNA-F: 10mer 2'-fluorinated RNA antisense oligomer, sequence CTCATACTCT, targeting acpP (all 2'-fluoro, backbone and T or U not given here)", "-"),
    ("PMO: 10mer phosphorodiamidate morpholino antisense oligomer, sequence CTCATACTCT, targeting acpP (all phosphorodiamidate morpholino (PMO))", "+"),
    ("RNA-MOE: 10mer 2'-methoxyethylated RNA antisense oligomer, sequence CTCATACTCT, targeting acpP (all 2'-MOE, backbone and methylation of C not given here)", "-"),
    ("PNA: 10mer peptide nucleic acid antisense oligomer, sequence CTCATACTCT, targeting acpP (all peptide nucleic acid (PNA))", "++"),
    ("DNA-PTO: 10mer phosphorothioate-modified DNA antisense oligomer, sequence CTCATACTCT, targeting acpP (antisense dC*dT*dC*dA*dT*dA*dC*dT*dC*dT)", "-"),
    ("LNA: 10mer 2'-4'-locked RNA antisense oligomer, sequence CTCATACTCT, targeting acpP (all LNA, backbone and methylation of C not given here)", "-"),
]

API: the following record is the query input.
# input For RNA-OMe: 10mer 2'-methylated RNA antisense oligomer, sequence CTCATACTCT, targeting acpP (all 2'-O-methyl, backbone and T or U not given here) , write its AcpP protein reduction.
# output -

* * *

System: acpP::gfp reporter transcript
Assay: In vitro translation (PURExpress) and anti-GFP western blot
Type: biochemical, Salmonella enterica
Conditions: acpP-RNA : ASO 1 : 0.625; unconjugated ASO; RNA 100 nM, 2 h 37 °C; relative to water control
Source text: For the generation of target RNA::gfp fusion constructs, we used a previously established protocol ([31]) and the oligonucleotides JVO-19760/JVO-19761 (Supplementary Table 1) to amplify the genomic region spanning nucleotides –40 to + 51 relative to the translational start codon of acpP. […] The PCR products were purified with NucleoSpin Gel and PCR Clean-up (Macherey-Nagel) according to the manufacturer’s instructions and DNA concentration was quantified with a NanoDrop spectrophotometer (A260 nm). […]
Oligonucleotides are written 5' to 3', each unit as a sugar letter and its base; * is a phosphorothioate linkage, no mark a phosphodiester; rarer units and linkages stand in square brackets, end groups in braces. Plain capitals give the bases only. d = 2'-deoxy (DNA)
TEST READOUT: GFP Expression (%)
Reply with the number, then its unit.

Worked examples follow.
# SUBSTANCE, TARGET DESC, GFP Expression (%)
measured = [
    ("RNA-MOE: 10mer 2'-methoxyethylated RNA antisense oligomer, sequence CTCATACTCT, targeting acpP (all 2'-MOE, backbone and methylation of C not given here)", "acpP::gfp reporter transcript", "88.5%"),
    ("RNA-F: 10mer 2'-fluorinated RNA antisense oligomer, sequence CTCATACTCT, targeting acpP (all 2'-fluoro, backbone and T or U not given here)", "acpP::gfp reporter transcript", "96.1%"),
    ("RNA-OMe: 10mer 2'-methylated RNA antisense oligomer, sequence CTCATACTCT, targeting acpP (all 2'-O-methyl, backbone and T or U not given here)", "acpP::gfp reporter transcript", "91.2%"),
    ("LNA: 10mer 2'-4'-locked RNA antisense oligomer, sequence CTCATACTCT, targeting acpP (all LNA, backbone and methylation of C not given here)", "acpP::gfp reporter transcript", "97.8%"),
    ("PNA: 10mer peptide nucleic acid antisense oligomer, sequence CTCATACTCT, targeting acpP (all peptide nucleic acid (PNA))", "acpP::gfp reporter transcript", "106.8%"),
]

# input For PMO: 10mer phosphorodiamidate morpholino antisense oligomer, sequence CTCATACTCT, targeting acpP (all phosphorodiamidate morpholino (PMO)) , write its GFP Expression (%).
# output 117.0%

# input For DNA-PTO: 10mer phosphorothioate-modified DNA antisense oligomer, sequence CTCATACTCT, targeting acpP (antisense dC*dT*dC*dA*dT*dA*dC*dT*dC*dT) , write its GFP Expression (%).
# output 110.7%

* * *

System: Cy5 5'-labelled RNA, nucleotides -20 to +20 of acpP (target mRNA)
Experiment: Microscale thermophoresis (MST) binding affinity
Design: species or system Salmonella enterica; key: -: Effect strength is represented by additional (+) signs.; Effect strength is represented by additional (+) signs.; ++: Effect strength is represented by additional (+) signs.; +++: Effect strength is represented by additional (+) signs
Conditions: summary grade; unconjugated ASO
Description: For each binding experiment, Cy5 5’-labelled RNA (as described above) was diluted to 10 nM in Buffer A (50 mM Tris-HCl pH 7.6, 250 mM KCl, 5 mM MgCl2, 1 mM DTT, 5% glycerol supplemented with 0.05% Tween 20). […] An initial fluorescence scan was performed across the capillaries to determine sample quality, which was followed by 16 thermophoresis measurements. […]
TEST READOUT: Binding affinity (in vitro)

# SUBSTANCE, RESULT
rows = [
    ("PNA: 10mer peptide nucleic acid antisense oligomer, sequence CTCATACTCT, targeting acpP (all peptide nucleic acid (PNA))", "+++"),
    ("RNA-OMe: 10mer 2'-methylated RNA antisense oligomer, sequence CTCATACTCT, targeting acpP (all 2'-O-methyl, backbone and T or U not given here)", "++"),
    ("PMO: 10mer phosphorodiamidate morpholino antisense oligomer, sequence CTCATACTCT, targeting acpP (all phosphorodiamidate morpholino (PMO))", "++"),
    ("RNA-MOE: 10mer 2'-methoxyethylated RNA antisense oligomer, sequence CTCATACTCT, targeting acpP (all 2'-MOE, backbone and methylation of C not given here)", "+++"),
]

* * *

tested on: acpP::gfp reporter transcript; assay: In vitro translation (PURExpress) and anti-GFP western blot; assay type: biochemical, Salmonella enterica; settings: acpP-RNA : ASO 1 : 1.25; unconjugated ASO; RNA 100 nM, 2 h 37 °C; relative to water control
Oligonucleotides are written 5' to 3', each unit as a sugar letter and its base; * is a phosphorothioate linkage, no mark a phosphodiester; rarer units and linkages stand in square brackets, end groups in braces. Plain capitals give the bases only. d = 2'-deoxy (DNA)
TEST READOUT: GFP Expression (%)
// units = %; emit number, no label

# SUBSTANCE, UNITS SYMBOL, GFP Expression (%)
records = [
    ("DNA-PTO: 10mer phosphorothioate-modified DNA antisense oligomer, sequence CTCATACTCT, targeting acpP (antisense dC*dT*dC*dA*dT*dA*dC*dT*dC*dT)", "%", 106.7),
    ("LNA: 10mer 2'-4'-locked RNA antisense oligomer, sequence CTCATACTCT, targeting acpP (all LNA, backbone and methylation of C not given here)", "%", 38.1),
    ("RNA-F: 10mer 2'-fluorinated RNA antisense oligomer, sequence CTCATACTCT, targeting acpP (all 2'-fluoro, backbone and T or U not given here)", "%", 97.5),
    ("PNA: 10mer peptide nucleic acid antisense oligomer, sequence CTCATACTCT, targeting acpP (all peptide nucleic acid (PNA))", "%", 85.9),
    ("PMO: 10mer phosphorodiamidate morpholino antisense oligomer, sequence CTCATACTCT, targeting acpP (all phosphorodiamidate morpholino (PMO))", "%", 104.6),
]

API: the following record is the query input.
# input For RNA-OMe: 10mer 2'-methylated RNA antisense oligomer, sequence CTCATACTCT, targeting acpP (all 2'-O-methyl, backbone and T or U not given here) , write its GFP Expression (%).
# output 100.6

* * *

test system: Salmonella; assay: Salmonella growth assay; assay type: cell-based, Salmonella enterica serovar Typhimurium strain SL1344; set-up: key: -: Effect strength is represented by additional (+) signs.; Effect strength is represented by additional (+) signs.; ++: Effect strength is represented by additional (+) signs.; +++: Effect strength is represented by additional (+) signs; settings: summary grade; ASO conjugated to the carrier peptide
Oligonucleotides are written 5' to 3', each unit as a sugar letter and its base; * is a phosphorothioate linkage, no mark a phosphodiester; rarer units and linkages stand in square brackets, end groups in braces. Plain capitals give the bases only. d = 2'-deoxy (DNA)
TEST READOUT: Antibacterial activity

Worked examples follow.
# SUBSTANCE, TEST READOUT, RESULT
records = [
    ("LNA: 10mer 2'-4'-locked RNA antisense oligomer, sequence CTCATACTCT, targeting acpP (all LNA, backbone and methylation of C not given here)", "Antibacterial activity", "-"),
    ("PNA: 10mer peptide nucleic acid antisense oligomer, sequence CTCATACTCT, targeting acpP (all peptide nucleic acid (PNA))", "Antibacterial activity", "++"),
    ("RNA-F: 10mer 2'-fluorinated RNA antisense oligomer, sequence CTCATACTCT, targeting acpP (all 2'-fluoro, backbone and T or U not given here)", "Antibacterial activity", "-"),
    ("PMO: 10mer phosphorodiamidate morpholino antisense oligomer, sequence CTCATACTCT, targeting acpP (all phosphorodiamidate morpholino (PMO))", "Antibacterial activity", "+"),
    ("RNA-MOE: 10mer 2'-methoxyethylated RNA antisense oligomer, sequence CTCATACTCT, targeting acpP (all 2'-MOE, backbone and methylation of C not given here)", "Antibacterial activity", "-"),
    ("RNA-OMe: 10mer 2'-methylated RNA antisense oligomer, sequence CTCATACTCT, targeting acpP (all 2'-O-methyl, backbone and T or U not given here)", "Antibacterial activity", "-"),
]

API: the following record is the query input.
# input Report value only: Antibacterial activity, Salmonella, DNA-PTO: 10mer phosphorothioate-modified DNA antisense oligomer, sequence CTCATACTCT, targeting acpP (antisense dC*dT*dC*dA*dT*dA*dC*dT*dC*dT)
# output -
